The reported measurements were obtained from the supplement of paper PMC10567573.

Consider the following variants; for each one, report its protein stability index.
B1: NP_015628.1 (parent)
chain: EQRNSRWNTVLRAVKAKTHHLEP

Variants of: B1
ASSAY_NOTES: protein stability index of a GFP-peptide fusion (GPS, HEK-293T) (PSI 1-6); higher = more stable;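 also: lentivirally expressed fusion library, cells FACS-sorted into six equal-sized GFP/DsRed ratio bins, PSI computed from sequencing read fractions per bin weighted by bin number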
EXPERIMENTAL_SETUP: c terminus: native
Reply briefly: the number, and no unit.

Form: variant = Q2P ; protein stability index = 3.06

Form: variant = A13S ; protein stability index = 3

Form: variant = N8V ; protein stability index = 3
